Test system: Neuronal cortical cells treated with Aβ1-42
Assay: Assay for Aβ neurotoxicity and Aβ neuroprotection (Assay 3(c))
Assay type: cell-based, mouse
Settings: 20 uM Aβ1-42, 4 days, MTS
Experimental Endpoint: % inhibition Abeta toxicity (%)
# output: bare number, implied unit %

// % inhibition Abeta toxicity lookup, key: O=C(NCCc1ccccn1)c1ccc2cccc(O)c2n1 [compound 950]
5

Given the compound O/N=C/c1ccc2cccc(O)c2n1 [compound 969] , what is its reported % inhibition Abeta toxicity?
2

Give the measured % inhibition Abeta toxicity of NC(=O)c1ccc2c(Cl)cc(Cl)c(O)c2n1 [compound 1037] .
4

Fill in: % inhibition Abeta toxicity of O=C(NCCc1c[nH]cn1)c1ccc2cccc(O)c2n1 [compound 948] is ___
9

Give its % inhibition Abeta toxicity value. Item: CN(c1ccccn1)c1ccc2c(Cl)cc(Cl)c(O)c2n1 [compound 1056]
39

% inhibition Abeta toxicity for CCCCN(c1ccc2cccc(O)c2n1)c1ccc2cccc(O)c2n1 [compound 53] ?
−75

I'd like to know its % inhibition Abeta toxicity. The compound in question is Oc1c(Cl)cc(Cl)c2ccc(-c3ccccn3)nc12 [compound 1052]
19

Using the record for O=S(=O)(O)c1ccc(O)c2ncccc12 [compound 41] , report its % inhibition Abeta toxicity.
12

Given the compound CO/N=C/c1ccc2c(Cl)cc(Cl)c(O)c2n1 [compound 1032] , what is its reported % inhibition Abeta toxicity?
−2

Fill in: % inhibition Abeta toxicity of Oc1cccc2cccnc12 [compound 42] is ___
14

Find the recorded % inhibition Abeta toxicity belonging to Oc1ccccc1-c1cc(Cl)c2cccnc2c1O [compound 947] and report it.
3

Give its % inhibition Abeta toxicity value. Item: Cc1cnc(NC(=O)c2ccc3cccc(O)c3n2)s1 [compound 953]
25

What measured % inhibition Abeta toxicity goes with CC(=O)NC(=O)c1ccc2cccc(O)c2n1 [compound 1021] ?
1

// query % inhibition Abeta toxicity value for entry Oc1c(Br)cc(-c2cc(F)cc(F)c2)c2cccnc12 [compound 853]
31

These data points were gathered from patent US9302993B2.
